src = PubChem BioAssay AID1159506

Experiment: Identification of proteins required for the processing of the EWS-FLI1 nascent transcript;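 note: robust z of luciferase light less the median z of siRNAs with the same seed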
Conditions: TC32 Ewing sarcoma NR0B1-luc vs CMV-luc (EWS-FLI1 target promoter against control promoter), 48 h; screened at 20 nM (by protocol)
Procedure: Ewing sarcoma (ES) cells depend on the EWS-FLI1 fusion transcription factor for cell survival. […] Luciferase activity was assessed 48 hours post siRNA-transfection. Twenty microl of serum-free media containing Lipofectamine RNAiMax (0.05 microl) was added to wells containing siRNA (0.8 pmol). […] Luciferase expression was measured using OneGlo (Promega, Madison, WI). […]
Whole data set: some 59,000 sequences, median the read-out near -0.00055, cut for the lowest 2% near -2. This excerpt belongs to a sample that is enriched for the lowest values.
Consider the following sequences; for each one, report its seed-corrected z-score.
Number, no unit, nothing else.

### Prompt Entry UAUGUGCACACGGUCUUGA against NRN1 : reported seed-corrected z-score = ?
### Response -1.7

### Prompt // next record UCUGGUUUUUGUACCCGCC against LOC403323
### Response -0.673

### Prompt // next record UACUCGAAGAUCAUCUUGG against MYO6
### Response -0.142

### Prompt // next record UCUGCGGAAACUUUGGUGG against CDH11
### Response -0.023

### Prompt // next record UCACUGUAUCUAAUAAAGC against FRG1JP
### Response -0.744

### Prompt // next record AAAAUAUAGAUAUCUAUGC against GADD45B
### Response 1.35

### Prompt // next record UUCCGUUCCACCUCCAUCA against SPATC1
### Response -2.15

### Prompt // next record UUUGGGCAGAUAGAAGGAG against ADAMTS15
### Response 0.203

### Prompt // next record UUAUUGACACUUGUUCAAG against COX7A1
### Response 0.106

### Prompt // next record UCAAUCAUCCGUGAGUUGC against WBSCR22
### Response 0.315

### Prompt // next record UUAGAUACAGGUAUGAACA against OR4C45
### Response 0.478

### Prompt // next record UGAUGUACUCCACUGAUGC against TFEC
### Response -0.552

### Prompt // next record UACUAUGUCUUCAAGAUCC against CD99L2
### Response 0.481

### Prompt // next record UAUAACAGCAGUAUCUGUC against TMEM215
### Response 0.183

### Prompt // next record UUGAAGACCACGUACAUGG against SLC35D3
### Response -0.373

### Prompt // next record UGAACUGCCUGGUCUGUCG against PDE6G
### Response -0.214

### Prompt // next record UCAGGUGCAAUCUGACUCU against PPP1R1C
### Response -2.4

### Prompt // next record UUUGUAGUUGUUCCCAUGC against TTPA
### Response -0.714

### Prompt // next record UGUUCUUUAAGCCUUUCCA against BLOC1S5
### Response -0.0488

### Prompt // next record UGAGUCAAAUGUUCUUUGG against KLF16
### Response 0.422

### Prompt // next record UUGAUCACCUCAGAGGCCG against USE1
### Response -1.2

### Prompt // next record UAUAUGUCUCGCAUUUGCC against TRE17
### Response -1.17

### Prompt // next record UUUGUCCUUAGUAAUGAAU against HOXA13
### Response -0.568

### Prompt // next record UUUGCGACAAAACAGUUUG against DEPTOR
### Response 0.125

### Prompt // next record UCAGCACACUGUCAGGUAC against USB1
### Response 0.878

### Prompt // next record UAUGUCCCAAAUAUACACC against SLC36A3
### Response 0.459
